All figures here come from PubChem BioAssay (NCI).

The entries below are paired with their reported TGI.
- Tested on: UACC-257 melanoma
- METHOD DESCRIPTION: NCI tumour cell line growth inhibition, 48 h

>  <MOLECULE>
c1ccc(C(NC2CCCCC2NCCNC2CCCCC2NC(c2ccccc2)(c2ccccc2)c2ccccc2)(c2ccccc2)c2ccccc2)cc1 (stereo unspecified)

>  <TGI>
> 100 µM

$$$$
>  <MOLECULE>
ClC1=C(Cl)C(Cl)(Cl)SS1

>  <TGI>
> 7.95 µM

$$$$
>  <MOLECULE>
COc1cc2ccc1NC(=O)N1CCN(CC1)C(=O)Nc1ccc(cc1OC)-c1ccc(c(OC)c1)NC(=O)N1CCN(CC1)C(=O)Nc1ccc-2cc1OC

>  <TGI>
> 100 µM

$$$$
>  <MOLECULE>
COc1nc(NC2OCC(OC(C)=O)C(OC(C)=O)C2OC(C)=O)c(-c2csc(N)n2)c(=O)n1C (stereo unspecified)

>  <TGI>
> 100 µM

$$$$
>  <MOLECULE>
CCOC(=O)C(NC(=O)CC)(Nc1ccccc1OC)C(F)(F)F (stereo unspecified)

>  <TGI>
> 100 µM

$$$$

Attention now shifts to the item below.
Request: Fill blank: measured TGI of the molecule `C=CCc1cccc2cc(C(N)=O)c(=N)oc12` is ____.
Response: > 100 µM

---

- Test system: 786-0 renal
- METHOD DESCRIPTION: NCI tumour cell line growth inhibition, 48 h
VALUE KIND: TGI (µM)
// note: answer is a bare numeric in µM

Answered cases to consult:
>  <MOLECULE>
Cc1cc(N(CCNc2ccnc3cc(Cl)ccc23)Cc2cccs2)nc(Cl)n1

>  <TGI, µM>
1.63

$$$$
>  <MOLECULE>
CC(O)CCc1ccc(Oc2c3ccccc3nc3occc23)cc1 (configuration not stated)

>  <TGI, µM>
21.9

$$$$

Request: Returns the measured TGI for the input molecule. Input: `C=C1C(=O)O[C@H]2[C@H]1CC/C(COC(=O)/C=C\C(=O)NCc1ccc(Cn3c(=O)sn(CCCI)c3=O)cc1)=C\CC[C@@]1(C)O[C@@H]21`
Response: 1.51

---

- Tested on: HOP-92 NSCLC
- METHOD DESCRIPTION: NCI tumour cell line growth inhibition, 48 h; in the data active = GI50 below about 0.43 µM; inactive = the rest
Please answer using one outcome listed in y = active, n = inactive

>  <MOLECULE>
O=C1N[C@@H]2[C@@H](O)[C@@H](O)[C@H](O)C[C@H]2c2cc3c(c(O)c21)OCO3

>  <ASSIGNED CATEGORY>
y

$$$$
>  <MOLECULE>
COC(=O)C1=CN(CC2=CC(=O)C(C)=CC2=O)C=C(C(=O)OC)C1c1cc(OC)ccc1OC

>  <ASSIGNED CATEGORY>
n

$$$$
>  <MOLECULE>
CCC(=O)OC1CCC2C3CCC(=O)OC3C(C)(CCC(=O)O)CC12C (configuration not stated)

>  <ASSIGNED CATEGORY>
n

$$$$
>  <MOLECULE>
COc1ccc(N2CCN(C(=O)c3ccc(C(F)(F)F)nc3Nc3cc(Cl)ccc3C)CC2)cc1

>  <ASSIGNED CATEGORY>
n

$$$$
>  <MOLECULE>
Cc1ccc(NC2=N[C@]34CC(=O)CC[C@]3(C)[C@H]3CC[C@]5(C)C(=O)CC[C@H]5[C@@H]3C[C@@H]4S2)c(C)c1

>  <ASSIGNED CATEGORY>
n

$$$$

Request: Call for entry `COc1ccc2nc3ccccc3c(NCc3ccc(Cl)cc3)c2c1` :
Response: n

Request: # outcome recorded in this test, key = `C[n+]1c2ccccc2c(Nc2ccc(N3CCCCC3)cc2)c2[nH]c3ccccc3c21`
Response: y

Request: Please indicate how the test categorized `COc1ccc2c(c1)NC(=O)CN2c1nc(NC2CC2)nc2ccccc12` .
Response: n

Request: Could you check what this test reported for `Cc1cc(N(CCNc2ccnc3cc(Cl)ccc23)Cc2cccs2)nc(Cl)n1` ?
Response: n

Request: Recorded test outcome, item `CN(C)CCCNCc1ccc(-c2ccc(F)c(Cl)c2)o1`
Response: n

Request: Test call, this molecule: O=C(Nc1ccc([As]=[As]c2ccc(NC(=O)c3ccccc3)cc2)cc1)c1ccccc1 (configuration not stated)
Response: y

Request: # outcome recorded in this test, key = Cc1cc(C2CC(O)C(CO)O2)c(Cl)cc1Cl (configuration not stated)
Response: n
